Target: PI3Kα (Homo sapiens (Human))
Sequence (P42336 whole entry): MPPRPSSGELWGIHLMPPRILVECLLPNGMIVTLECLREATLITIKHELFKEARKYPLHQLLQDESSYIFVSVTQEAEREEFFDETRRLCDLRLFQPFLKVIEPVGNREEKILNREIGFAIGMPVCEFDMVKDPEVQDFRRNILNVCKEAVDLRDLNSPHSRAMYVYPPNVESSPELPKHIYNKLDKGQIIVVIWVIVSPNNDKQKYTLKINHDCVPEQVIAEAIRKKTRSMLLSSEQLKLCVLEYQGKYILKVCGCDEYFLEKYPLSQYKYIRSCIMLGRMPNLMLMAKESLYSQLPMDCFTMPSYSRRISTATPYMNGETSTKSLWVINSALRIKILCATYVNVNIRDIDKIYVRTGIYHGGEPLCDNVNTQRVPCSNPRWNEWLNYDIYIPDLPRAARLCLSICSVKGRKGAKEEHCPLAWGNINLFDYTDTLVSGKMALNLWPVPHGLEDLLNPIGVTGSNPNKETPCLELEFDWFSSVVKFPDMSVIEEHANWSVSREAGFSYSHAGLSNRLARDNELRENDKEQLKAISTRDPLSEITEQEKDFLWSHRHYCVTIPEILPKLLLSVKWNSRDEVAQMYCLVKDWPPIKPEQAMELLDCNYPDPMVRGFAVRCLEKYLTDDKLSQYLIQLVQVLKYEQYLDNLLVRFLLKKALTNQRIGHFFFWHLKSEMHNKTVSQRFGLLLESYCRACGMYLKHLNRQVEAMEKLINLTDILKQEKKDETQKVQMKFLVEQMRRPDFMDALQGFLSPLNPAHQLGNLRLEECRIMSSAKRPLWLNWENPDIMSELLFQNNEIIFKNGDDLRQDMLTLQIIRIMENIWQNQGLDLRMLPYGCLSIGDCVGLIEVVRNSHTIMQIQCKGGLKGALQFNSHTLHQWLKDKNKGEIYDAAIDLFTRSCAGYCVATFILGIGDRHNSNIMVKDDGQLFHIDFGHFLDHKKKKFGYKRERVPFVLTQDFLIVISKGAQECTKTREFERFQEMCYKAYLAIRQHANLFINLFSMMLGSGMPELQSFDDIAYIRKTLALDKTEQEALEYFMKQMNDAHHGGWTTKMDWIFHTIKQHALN
Sequence (P27986 whole entry partner): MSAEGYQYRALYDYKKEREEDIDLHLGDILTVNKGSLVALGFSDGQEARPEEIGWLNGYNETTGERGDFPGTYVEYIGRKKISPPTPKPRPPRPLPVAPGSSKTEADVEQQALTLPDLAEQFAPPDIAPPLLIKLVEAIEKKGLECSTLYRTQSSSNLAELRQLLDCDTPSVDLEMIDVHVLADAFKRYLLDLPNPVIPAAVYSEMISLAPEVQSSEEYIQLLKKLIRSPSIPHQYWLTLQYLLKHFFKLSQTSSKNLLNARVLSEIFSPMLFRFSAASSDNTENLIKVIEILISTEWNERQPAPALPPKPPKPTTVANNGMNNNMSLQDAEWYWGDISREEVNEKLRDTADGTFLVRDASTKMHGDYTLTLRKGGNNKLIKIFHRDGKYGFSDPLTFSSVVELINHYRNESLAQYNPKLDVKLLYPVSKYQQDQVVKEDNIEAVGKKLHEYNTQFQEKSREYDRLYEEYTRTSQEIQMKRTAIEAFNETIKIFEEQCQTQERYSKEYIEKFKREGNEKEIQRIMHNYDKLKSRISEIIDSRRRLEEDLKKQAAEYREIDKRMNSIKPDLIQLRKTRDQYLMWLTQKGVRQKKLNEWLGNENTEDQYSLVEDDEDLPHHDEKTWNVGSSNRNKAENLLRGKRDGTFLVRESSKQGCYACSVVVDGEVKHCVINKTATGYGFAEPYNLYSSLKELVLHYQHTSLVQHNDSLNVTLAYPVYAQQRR
Assay: PI3Kα enzyme activity inhibition IC50 evaluation assay
Format: biochemical
Settings: ratio PI3Kα vs PI3Kδ
Respond with Fulfilled for α/δ selectivity values of 90 and above, Not fulfilled for values below.

| MOLECULE | CLASS_NAME |
| --- | --- |
| COc1ncc(-c2nc(N3CCOCC3)nc3c(CN4CCN(C5CC(C)OC(C)C5)CC4)csc23)cc1NS(C)(=O)=O (stereo not shown) | Not fulfilled |
| COc1ncc(-c2nc(N3CCOCC3)nc3c(CN4CC[C@@H](N5CCCC5)C4)c(C)sc23)cc1NS(C)(=O)=O | Fulfilled |
| CCS(=O)(=O)Nc1cc(-c2nc(N3CCOCC3)nc3c(CN4CCN(C)CC4)csc23)cnc1OC | Not fulfilled |
| CC(C)C(=O)N1CCN(Cc2csc3c(-c4cnn(C)c4)nc(N4CCOCC4)nc23)CC1 | Not fulfilled |
| COc1ncc(-c2nc(N3CCOCC3)nc3c(CN4CCC(N5CCC[C@H]5CO)CC4)c(C)sc23)cc1NS(C)(=O)=O | Fulfilled |
| COc1ncc(-c2nc(N3CCOCC3)nc3c(CN4CCN(C)CC4)csc23)cc1NS(=O)(=O)N(C)C | Not fulfilled |
| COc1ncc(-c2nc(N3CCOCC3)nc3c(CN4CCN(C(=O)C(F)(F)F)CC4)csc23)cc1NS(C)(=O)=O | Fulfilled |
